Hello, the source for this data is patent US8114968, in case you need it.

# IC50 (nM), large scale purified Fabs annotations
target: human MMP-12 (human, UniProt P39900 106-470, limits assumed); experiment: cell-based or functional assay
Sequence (P39900 106-470 limits assumed): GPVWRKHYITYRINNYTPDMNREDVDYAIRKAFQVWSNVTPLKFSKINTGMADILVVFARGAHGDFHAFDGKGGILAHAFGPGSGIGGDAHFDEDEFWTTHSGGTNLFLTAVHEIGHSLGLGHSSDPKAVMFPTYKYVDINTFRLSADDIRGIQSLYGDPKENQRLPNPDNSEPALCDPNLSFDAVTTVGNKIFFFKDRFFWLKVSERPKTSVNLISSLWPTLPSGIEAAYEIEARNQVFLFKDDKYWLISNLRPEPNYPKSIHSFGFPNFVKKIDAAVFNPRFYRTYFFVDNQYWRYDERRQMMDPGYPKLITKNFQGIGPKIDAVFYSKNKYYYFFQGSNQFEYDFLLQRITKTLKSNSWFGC
Respond with the bare value in nM.

For 539A-M0019-C05 Fab (Fab, V domains shown) VH: EVQLLESGGGLVQPGGSLRLSCAASGFTFSWYAMVWVRQAPGKGLEWVSYIGSSGGVTGYADSVKGRFTISRDNSKNTLYLQMNSLRAEDTAVYYCARQKRVDYYDSSGYPTNAEFDYWGQGTLVTVSS VL: QYELTQPRSVSGSPGQSVTISCTGSSSDVAGFYYVSWYQQHPGKAPKLMIRDVNDRPSGVSNRFSGSKSGNTASLTIAGLQTEDEAVYYCSSTSRSDTRVIFGGGTKLTV the binder record lists IC50 (nM), large scale purified Fabs as 93
